This collection of values is drawn from PubChem BioAssay (NCI).

test: NCI Yeast Anticancer Drug Screen. Data for the sgs1 mgt1 strain (AID 161);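 further: 0% = growth of cultures given vehicle only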; conditions: S. cerevisiae sgs1 mgt1 strain, at 50.0 µM, active compounds read high
This is part of a sample that, as a whole, favours compounds with a hit. Of some 79,000 tested, about 15% had one in any assay.
readout_type: growth inhibition (%)
# output: bare number, implied unit %

# annotated cases, reported growth inhibition shown
Entry CCCCNC(=O)C(C)S(=O)(=O)c1ccc(C)cc1 (stereo not given) : reported growth inhibition = ?
-17.3

Entry `O=[N+]([O-])c1ccc(-c2cc3ccccc3nc2Cl)cc1` : reported growth inhibition = ?
8.4

Entry `Cc1ccc(SCCN)cc1` : reported growth inhibition = ?
-6.3

Entry CC1/C(=N/Nc2ccc([N+](=O)[O-])cc2)CC2C3(C)CCC2(C(C)C(=O)O)C(=O)C13 (stereo not given) : reported growth inhibition = ?
83.5

Entry `CCCCCCCCC(C)(C)O` : reported growth inhibition = ?
-1.25

Entry `CCC(=O)OCCSCCOC(=O)CC` : reported growth inhibition = ?
-6.4

New cases:
Entry `CC(C)CCOC(=O)c1ccc(C(C)C)cc1` : reported growth inhibition = ?
-0.35

Entry `COc1cccc(/C=N\c2nc(-c3ccccc3Cl)cs2)c1O` : reported growth inhibition = ?
32.4

Entry `N#CCC(=O)N1CCc2ccccc2C1` : reported growth inhibition = ?
1.85

###

Entries annotated with measured growth inhibition
experiment: NCI Yeast Anticancer Drug Screen. Data for the bub3 strain (AID 167); details: S. cerevisiae bub3 mutant strain, at 50.0 µM, active compounds read high
About 79,000 compounds went through this panel and 15% of them were active in at least one assay; those are over-represented in the sample as a whole. Activity calls are given as the source filed them. No stated cut-off is given here; in the data, active means growth inhibition above about 70%; inactive means the rest.

Entry `OCCN1CCN(C2=Nc3cccnc3Nc3cscc32)CC1` : reported growth inhibition = ?
-5.05% (inactive)

Let us examine a further case.
Entry CC1OC2CC(O)C1(O)C1=C2C(O)=C(C(N)=O)C(=N)C1=O (configuration not stated) : reported growth inhibition = ?
5.35% (inactive)

###

test: NCI Yeast Anticancer Drug Screen. Data for the mec2-1 strain (AID 157); settings: S. cerevisiae mec2-1 strain, at 50.0 µM
This is part of a sample that, as a whole, favours compounds with a hit. Of some 79,000 tested, about 15% had one in any assay. Activity calls are given as the source filed them. Cut-off read from the data, not from the text of the source: active = growth inhibition above about 70%; inactive = the rest.
Can you answer with just one of these options? class 1 for active, class 0 for inactive

Test call for this molecule, please: CC1(C)OC2COC(c3[nH]nc(C(N)=O)c3C(=O)N=[N+]=[N-])C2O1 (stereo not given)
class 0

New cases:
Test call for this molecule, please: OC1CCCN(Cc2ccccc2)C1 (stereo not given)
class 0

Test call for this molecule, please: `Cc1[nH]n(C(N)=S)c(=O)c1N=Nc1c(Cl)cccc1Cl`
class 0

Test call for this molecule, please: CSc1nc2c(nnn2C2OCC(O)C(O)C2O)c(=O)[nH]1 (stereo not given)
class 0

Test call for this molecule, please: Cc1ccc(NC(=O)OCC2CC3C=CC2C3)cc1 (stereo not given)
class 1

Test call for this molecule, please: `O=c1[nH]c2cccccc-2c1-c1nc2ccccc2[nH]1`
class 0

Test call for this molecule, please: `O=S(=O)(Oc1ccc(Cl)cc1)c1ccc(Br)cc1`
class 0

Test call for this molecule, please: `COC(=O)c1nsc(OC)c1Cl`
class 0

###

test: NCI Yeast Anticancer Drug Screen. Data for the cln2 rad14 strain (AID 165);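 further: 0% = growth equal to vehicle treated cultures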; conditions: S. cerevisiae cln2 rad14 strain, at 50.0 µM
Compounds without any hit were thinned out: in the full panel of roughly 79,000, 15% have a hit. The source made the active and inactive calls. Rule as the data show it: active = growth inhibition above about 70%; inactive = the rest.
Can you answer with just one of these options? t = active, f = inactive

Test call for this molecule, please: `ClCCOC(c1ccc(Cl)cc1)c1ccc(Cl)cc1`
f

Test call for this molecule, please: Cc1cc(C)c(OCC(O)CO)c(C)c1 (stereo not given)
f

###

Entries annotated with measured growth inhibition
Experiment: NCI Yeast Anticancer Drug Screen. Data for the sgs1 mgt1 strain (AID 161);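 further: 0% = growth of cultures given vehicle only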
Conditions: S. cerevisiae sgs1 mgt1 strain, at 50.0 µM, active compounds read high
Protocol: Growth inhibition of yeast strains with defined genetic alterations is measured as a screen for potential anti-cancer activity. Selected strains with alterations in DNA damage repair or cell cycle control were exposed to compounds and growth inhibition was measured relative to vehicle treated controls. The strain used in this assay is sgs1 mgt1
About 79,000 compounds went through this panel and 15% of them were active in at least one assay; those are over-represented in the sample as a whole.
# output: bare number, implied unit %

Entry COC(=O)C1CCC(C)(C(=O)OC)C1(C)C (configuration not stated) : reported growth inhibition = ?
-11.9

Entry `CCCCCCCCCCCCCCCCCC/C(CC)=N/Nc1ccc([N+](=O)[O-])cc1[N+](=O)[O-]` : reported growth inhibition = ?
-12.2

Let us examine a further case.
Entry O=[N+]([O-])C1CCC(N=Nc2c(O)ccc3ccccc23)CC1 (configuration not stated) : reported growth inhibition = ?
4.65

###

assay: NCI Yeast Anticancer Drug Screen. Data for the bub3 strain (AID 167); details: S. cerevisiae bub3 mutant strain, at 50.0 µM, active compounds read high
The panel holds about 79,000 compounds, 15% with a hit somewhere; the sample as a whole holds those more often.
readout_type: growth inhibition (%)
# output: bare number, implied unit %

Entry CC1(C)C2CC=C(CCO)C1C2 (stereo unspecified) : reported growth inhibition = ?
0.05

Entry `Nc1c2ccccc2nc2ccc3c(=O)cc(-c4ccccc4)oc3c12` : reported growth inhibition = ?
11.1

Entry `CC(=O)CC(=O)Nc1ccccc1[N+](=O)[O-]` : reported growth inhibition = ?
7.05

Entry `Cc1c(Cl)cccc1NC(=O)Oc1ccccc1Cc1ccccc1` : reported growth inhibition = ?
67.5

Entry CC=C1C(C(=O)O)C1C(=O)O (stereo unspecified) : reported growth inhibition = ?
15.3

Entry `COc1ccc(OC)c2cc(C3(C)SCCCS3)ccc12` : reported growth inhibition = ?
13.2

Entry `C=CCOC(=O)CCC(=O)OCC=C` : reported growth inhibition = ?
5.8

Entry `CCCCCCCC(=O)CC(C)C` : reported growth inhibition = ?
-21.4

Entry CCC(C(=O)O)C1=CCCc2c(C)ccc(C)c21 (stereo unspecified) : reported growth inhibition = ?
11.7

Entry `COC(=O)N/N=C/c1oc(-c2cccc([N+](=O)[O-])c2)c(-c2cccc([N+](=O)[O-])c2)c1[N+](=O)[O-]` : reported growth inhibition = ?
21

Entry `C=CCOc1ccc(N)c([N+](=O)[O-])c1` : reported growth inhibition = ?
36.7

Entry `O=c1[nH]c(=O)c2[nH]c(=O)[nH]c2[nH]1` : reported growth inhibition = ?
7.25

Entry `CC(=O)c1ccc(N=C2C(=O)Nc3ccccc32)cc1` : reported growth inhibition = ?
9

###

assay: NCI Yeast Anticancer Drug Screen. Data for the mlh1 rad18 strain (AID 175); conditions: S. cerevisiae mlh1 rad18 strain growth inhibition; at 50.0 µM
The panel holds about 79,000 compounds, 15% with a hit somewhere; the sample as a whole holds those more often. The source made the active and inactive calls. Rule as the data show it: active = growth inhibition above about 70%; inactive = the rest.
Can you answer with just one of these options? label 1 (active), label 0 (inactive)

Test call for this compound, please: `NNS(=O)(=O)c1ccc(N)cc1`
label 0

Test call for this compound, please: COC1OC(COC(c2ccccc2)(c2ccccc2)c2ccccc2)C2SC12 (configuration not stated)
label 0

Test call for this compound, please: COc1cc(C2c3cc4c(cc3OC(N3CCNCC3)C2C)OCO4)cc(OC)c1OC (configuration not stated)
label 0

Test call for this compound, please: `NC(=O)c1ccc(Cl)c([N+](=O)[O-])c1`
label 0

Test call for this compound, please: `C=CS(=O)(=O)CCOc1ccc(Cl)cc1Cl`
label 1

Test call for this compound, please: O=C1NCCCCC1CC/C=C/c1ccccc1 (configuration not stated)
label 0

Test call for this compound, please: `COc1ccc(CCl)c(C)c1OC`
label 0

Test call for this compound, please: `NOCCCCON`
label 0

New cases:
Test call for this compound, please: `CCCc1nc(N)nc(C(=O)Nc2cccc(C(F)(F)F)c2)c1CC`
label 0

Test call for this compound, please: CCOC(=O)C(N)Cc1cc(I)c(O)c(I)c1 (configuration not stated)
label 0

Test call for this compound, please: CCOC(=O)C(C(C)=O)C(NO)C(Cl)(Cl)Cl (configuration not stated)
label 0

Test call for this compound, please: `[CH3][Ge]([CH3])([CH3])/[C](=[C](\c1ccccc1)[Ge]([CH3])([CH3])[CH3])c1ccccc1`
label 0

Test call for this compound, please: `NC(=O)N1CCCCN1C(N)=O`
label 0

Test call for this compound, please: `C=CCN(CC=C)/N=N/c1nc[nH]c1C(N)=O`
label 0

Test call for this compound, please: `CC(C)N(CC(=O)O)CC(=O)O`
label 0

Test call for this compound, please: `Cn1nc2ccccc2cc1=O`
label 0

Test call for this compound, please: `CCCCCOC(=S)S.[Ag]`
label 0

Test call for this compound, please: `O=C(/C=C/c1ccc([N+](=O)[O-])cc1)NN=C(c1ccccc1)c1ccccc1`
label 0

Test call for this compound, please: `O=C(O)CCSSCCCS(=O)O`
label 0

Test call for this compound, please: CC(=O)NC(Cc1ccc(F)cc1)C(=O)O (configuration not stated)
label 0

Test call for this compound, please: `COc1ccc(/C=C/C(=O)O)cc1OC`
label 0

Test call for this compound, please: `COC(=O)c1cc(C(=O)OC)c(C/C(=N/NC(N)=S)C(=O)Nc2ccc(Cl)c(Cl)c2)nc1C/C(=N/NC(N)=S)C(=O)Nc1ccc(Cl)c(Cl)c1`
label 0

Test call for this compound, please: `CCc1nc2c(N)ncnc2o1`
label 0

Test call for this compound, please: `COc1ccccc1NC(=O)CCl`
label 0

Test call for this compound, please: `NC(N)=NC(N)=Nc1ccc(C(=O)O)cc1`
label 0

Test call for this compound, please: `CC(=O)CC(=O)Nc1ccccc1[N+](=O)[O-]`
label 0

Test call for this compound, please: `NCCSSC/C=C\CSSCCN`
label 0
